Target: procaspase-7 (Homo sapiens (Human))
Sequence (P55210 whole entry): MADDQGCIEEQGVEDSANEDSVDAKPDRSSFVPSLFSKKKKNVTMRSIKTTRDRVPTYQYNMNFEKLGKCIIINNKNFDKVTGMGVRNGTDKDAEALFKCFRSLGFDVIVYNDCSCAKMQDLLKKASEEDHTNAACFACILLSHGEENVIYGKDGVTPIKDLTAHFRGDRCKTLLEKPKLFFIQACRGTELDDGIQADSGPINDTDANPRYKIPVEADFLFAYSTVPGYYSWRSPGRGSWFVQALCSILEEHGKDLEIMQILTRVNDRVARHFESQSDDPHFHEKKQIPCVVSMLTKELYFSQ
Details: read-out: EC50 for activation of procaspase-7
READOUT: EC50 (µM)
Enter your answer as a number in µM; do not include the unit.

# EC50 (compound: C=CCc1cccc(/C=N/NC(=O)CN2CCN(Cc3ccccc3)CC2)c1O ) is 4.5

* * *

Molecular target: procaspase-3 (Homo sapiens (Human))
Sequence (P42574 whole entry): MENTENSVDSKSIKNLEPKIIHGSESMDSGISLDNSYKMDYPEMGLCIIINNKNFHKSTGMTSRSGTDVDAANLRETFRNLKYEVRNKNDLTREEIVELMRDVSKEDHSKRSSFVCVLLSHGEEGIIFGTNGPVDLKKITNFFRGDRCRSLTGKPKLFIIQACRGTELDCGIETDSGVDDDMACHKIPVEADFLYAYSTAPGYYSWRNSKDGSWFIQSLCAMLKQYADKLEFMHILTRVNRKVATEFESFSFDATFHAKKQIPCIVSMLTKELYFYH
Test: In vitro activation of purified procaspase-3 (activation curves, Ac-DEVD-pNA)
Assay type: biochemical
Details: in vitro; read-out: EC50 for activation of procaspase-3
pEC50: −log10 of the molar value.
READOUT: pEC50

Form field pEC50, entry C=CCc1cccc(/C=N/NC(=O)CN2CCN(Cc3ccccc3)CC2)c1O : ~6.66
